src = PubChem BioAssay (NCI)

Give measured TGI for each item. Keep answers brief.
tested on: MDA-MB-231 breast; assay: NCI tumour cell line growth inhibition, 48 h

Identify measured TGI associated with O=C(O)CCC1(C(=O)O)CCC(=O)c2ccccc21 (stereo not drawn)
> 100 µM

Identify measured TGI associated with `O=S(=O)(Nc1cc(F)cc(F)c1)c1ccc(-c2cnc(C3CC3)o2)cc1`
41.7 µM

Identify measured TGI associated with `Cn1cc(C2=C(n3ccc4ccccc43)C(=O)NC2=O)c2ccccc21`
> 25 µM

Identify measured TGI associated with `CCCCCC[n+]1noc(N)c1-c1ccc(-c2c(N)on[n+]2CCCCCC)cc1`
9.87 µg/mL

Identify measured TGI associated with `Cc1cc(O)c(C=NC(=S)c2ccncc2)c(=O)o1`
> 100 µM

Identify measured TGI associated with CCOC(=O)CC1C(O)C(=O)N(C)C1c1ccccc1 (stereo not drawn)
> 100 µM

Identify measured TGI associated with COc1cc(Br)c(CC2C3=C(CCN2C(=O)C2CCC2)CC2(CC3)OCCO2)cc1O (stereo not drawn)
> 100 µM

Identify measured TGI associated with COc1ccc2c(c1OC)C(=O)OC2C1c2c(c(N)c3c(c2OC)OCO3)CCN1C (stereo not drawn)
20.7 µM

Identify measured TGI associated with `CCCCc1ccc(Nc2nc3c(ncn3COCCBr)c(=O)[nH]2)cc1`
> 100 µM

Identify measured TGI associated with CCC1c2[nH]c3ccccc3c2C[C@H]2C(=O)NC(Cc3c[nH]c4ccccc34)C(=O)N12 (stereo partly drawn)
38.1 µM

Identify measured TGI associated with `O=C1c2ccccc2CC12CCC1(CC2)OCCO1`
> 100 µM

Identify measured TGI associated with `O=C(NCCn1ccnn1)Nc1ccccc1`
> 100 µM

Identify measured TGI associated with `O=Cc1cn(Cc2ccccc2)c2ccccc12`
> 100 µM

Identify measured TGI associated with `CCCCS/C(=C(/C#N)C(N)=O)c1cc2c([nH]1)CCCC2`
30.3 µM

Identify measured TGI associated with COc1cc(C(=O)O[C@H]2CCC3CCC2N3C)cc(OC)c1OC (stereo partly drawn)
> 100 µM

Identify measured TGI associated with CC(=O)OC1COC(n2nc(N)nc2C)C(OC(C)=O)C1OC(C)=O (stereo not drawn)
> 100 µM

Identify measured TGI associated with `C/C(=N\Nc1nc2ccccc2o1)c1ccc2ccccc2n1`
> 100 µM

Identify measured TGI associated with CCOC(=O)/C=C/C1OC(C)(C)OC1/C=C/C(=O)OCC (stereo not drawn)
> 100 µM

Identify measured TGI associated with `CCN(CC)CCn1ncc2c(N)ncnc21`
> 100 µM

Identify measured TGI associated with `COc1ccc(/C=C(/C(=O)N2CCCCC2)c2cc(OC)c(OC)c(OC)c2)cc1`
> 100 µM

Identify measured TGI associated with COC(=O)C1(CCC(=O)N(C)c2ccccc2)NNC2C(=O)N(c3ccccc3)C(=O)C21 (stereo not drawn)
> 10 µM

Identify measured TGI associated with `CCOC(=O)c1cc(C)n(CN(CCO)Cn2nc(C(=O)OCC)cc2C)n1`
91.2 µM

Identify measured TGI associated with `CC(=O)OCc1cc(=O)n2c([nH]c3ccccc32)c1C#N`
> 100 µM
